Assign Population Membrane Permeable-Phenotype (%) to each entry below.
# Test system: U2OS
# procedure summary: Multiplex assay against U2OS
# Assay type: toxicity, cell-based
# test conditions: human, 24 h, 1 µM, compound concentration 1 uM, replicate 2
Answers are plain numbers, in %.

# count of solved cases: 6
-- ask Lab note: U2OS assay, enter Population Membrane Permeable-Phenotype (%) for "CCc1cccc(CC)c1NC(=O)c1nn(C)c2c1CCc1cnc(Nc3ccc(C(=O)NC4CCN(C)CC4)cc3OC(F)(F)F)nc1-2" here
-- reply 5

-- ask # assay system U2OS: give Population Membrane Permeable-Phenotype (%) of "CNC(=O)c1ccc(Nc2nc(OC3CCCC3)c3c(-c4ccc5nc(C)oc5c4)c[nH]c3n2)c(OC)c1"
-- reply 65

-- ask For U2OS, give Population Membrane Permeable-Phenotype (%) of the listed compound: "CCCS(=O)(=O)c1nc(NC2CC2)cc(-c2ccc3c(ccn3C3CC(C)(C)NC(C)(C)C3)c2)n1"
-- reply 10

-- ask State measured Population Membrane Permeable-Phenotype (%) of the compound "O=C(Nc1cccnn1)N1CCC(=Cc2cccc(Oc3ccc(C(F)(F)F)cn3)c2)CC1" with U2OS.
-- reply 19

-- ask Output reported Population Membrane Permeable-Phenotype (%) of the compound "CNc1cc(Oc2cc(C(=O)Nc3cc(N4CCN(C)CC4)cc(C(F)(F)F)c3)ccc2C)ncn1" on U2OS.
-- reply 13

-- ask Answer briefly: Population Membrane Permeable-Phenotype (%) recorded on U2OS for "Cl.Oc1ccc2c3c1O[C@H]1c4[nH]c5c(c4C[C@@]4(O)[C@@H](C2)N(CC2CC2)CC[C@]314)C[C@@]1(O)[C@H]2Cc3ccc(O)c4c3[C@@]1(CCN2CC1CC1)[C@H]5O4"
-- reply 10

Further cases:
-- ask Fill in Population Membrane Permeable-Phenotype (%) for "CCn1cc(-c2ccnc3[nH]c(-c4cccc(CN(C)C)c4)cc23)c(-c2ccc(NC(=O)N(C)C)cc2)n1" tested with U2OS.
-- reply 22

###

Assignment: determine reported Total Cell Count for the given compounds.
# System: Fibroblast
# procedure summary: Multiplex assay against human fibroblast
# Type: toxicity, cell-based
# test conditions: 12 h, 10 µM, compound concentration 10 uM, replicate 1
Numbers only.

Here's what some known entries look like.
-- ask Tell me Total Cell Count reported for "C=C1/C(=C\C=C2/CCC[C@]3(C)[C@@H]([C@H](C)/C=C/[C@H](C)C(C)C)CC[C@@H]23)C[C@@H](O)C[C@@H]1O"
-- reply 247

-- ask For the compound "Cl.Oc1ccc2c3c1O[C@H]1c4[nH]c5c(c4C[C@@]4(O)[C@@H](C2)N(CC2CC2)CC[C@]314)C[C@@]1(O)[C@H]2Cc3ccc(O)c4c3[C@@]1(CCN2CC1CC1)[C@H]5O4" , report Total Cell Count.
-- reply 173

-- ask Tell me Total Cell Count reported for "CCOc1cc(C(=O)N2CCC(N3CCN(C)CC3)CC2)ccc1Nc1ncc2c(n1)N(C1CCCC1)c1ccccc1C(=O)N2C"
-- reply 84

-- ask For "Cc1cn(-c2cc(NC(=O)c3ccc(C)c(Nc4nccc(-c5cccnc5)n4)c3)cc(C(F)(F)F)c2)cn1" , write its Total Cell Count.
-- reply 2441

-- ask Answer with reported Total Cell Count of "O=C1NC(=O)C(c2cnc3ccccn23)=C1c1cn2c3c(cc(F)cc13)CN(C(=O)N1CCCCC1)CC2"
-- reply 101

Hi, could you look up Total Cell Count for each item in my list?
1. COCC(=O)NC/C=C/c1ccc2ncnc(Nc3ccc(Oc4ccc(C)nc4)c(C)c3)c2c1
2. COc1ccc(S(=O)(=O)N(CCO)c2ccccc2CN(C)C/C=C/c2ccc(Cl)cc2)cc1.O=P(O)(O)O
3. CCc1cccc(CC)c1NC(=O)c1nn(C)c2c1CCc1cnc(Nc3ccc(C(=O)NC4CCN(C)CC4)cc3OC(F)(F)F)nc1-2
4. CN1CCN(C(=O)C(C)(C)c2ccc(C(=O)Nc3cn4cc(-c5cc(C(C)(C)C)cc(C(C)(C)C)c5)ccc4n3)cc2)CC1
5. CN1CCC(=C2c3ccccc3CC(=O)c3sccc32)CC1.O=C(O)/C=C/C(=O)O [KETOTIFEN FUMARATE]
6. COc1cccc2cc(-c3nc([C@H]4CC[C@H](C(=O)O)CC4)n4ncnc(N)c34)[nH]c12
7. CNc1cc(Oc2cc(C(=O)Nc3cc(N4CCN(C)CC4)cc(C(F)(F)F)c3)ccc2C)ncn1
8. CCCS(=O)(=O)Nc1ccc(F)c(C(=O)c2c[nH]c3ncc(Cl)cc23)c1F

-- reply
148
179
139
260
168
281
186
254

-- ask For "CCN1CCN(c2ccc(Nc3cc(N(C)C(=O)Nc4c(Cl)c(OC)cc(OC)c4Cl)ncn3)cc2)CC1" , write its Total Cell Count.
-- reply 195

###

Provide the recorded Population Mitochondria Different-Phenotype (%) for the entries that follow.
# Test system: Fibroblast
# procedure summary: Multiplex assay against human fibroblast
# Assay type: toxicity, cell-based
# test conditions: 12 h, 1 µM, compound concentration 1 uM, replicate 1
One number for each entry, in %.

Consider the worked cases shown below.
-- ask Quickly give me recorded Population Mitochondria Different-Phenotype (%) for "O=C(Nc1ccc(Cl)cc1)Nc1cccc(-c2cccc(N3CCCC3)n2)c1"
-- reply 5

-- ask Read the entry "Cl.O=c1c2cccn2c2ccccc2n1CCCN1CCC(c2ccc(Cl)cc2)CC1" and write its reported Population Mitochondria Different-Phenotype (%).
-- reply 15

-- ask Name the recorded Population Mitochondria Different-Phenotype (%) of the molecule listed here: CN(C)C(=O)C(CCN1CCC(O)(c2ccc(Cl)cc2)CC1)(c1ccccc1)c1ccccc1.Cl [LOPERAMIDE HYDROCHLORIDE]
-- reply 19

-- ask Given "CCn1cc(-c2ccnc3[nH]c(-c4cccc(CN(C)C)c4)cc23)c(-c2ccc(NC(=O)N(C)C)cc2)n1" , respond with its Population Mitochondria Different-Phenotype (%).
-- reply 0

Could I get Population Mitochondria Different-Phenotype (%) for every one of these entries?
1. CN1CCC(=C2c3ccccc3CC(=O)c3sccc32)CC1.O=C(O)/C=C/C(=O)O [KETOTIFEN FUMARATE]
2. Cc1cc(C)c(S(=O)(=O)N(Cc2ccc(-c3cccc(S(C)(=O)=O)c3)cc2)Cc2ccc(C(F)(F)F)o2)c(C)c1
3. CCOC(=O)c1c(C)[nH]c2ccc3c(c12)CN1CCc2cc(OC)ccc2C1O3 (stereo not drawn)
4. O=C(Cc1ccc(-c2ccc(OCCN3CCOCC3)cc2)cn1)NCc1ccccc1

-- reply
[3, 8, 23, 9]

###

# System: Fibroblast
# procedure summary: Multiplex assay against human fibroblast
# Assay type: toxicity, cell-based
# test conditions: 12 h, 10 µM, compound concentration 10 uM, replicate 2
Can you tell me Population Mitotic Cells (%) for the items I'm about to list?
Answers are plain numbers, in %.

Sample records with Population Mitotic Cells (%):
-- ask Give Population Mitotic Cells (%); test system Fibroblast; molecule "COc1ccc(-c2ccc3c(N4CCOCC4)nc(N4C[C@@H](C)O[C@@H](C)C4)nc3n2)cc1CO"
-- reply 0

-- ask # return Population Mitotic Cells (%) of CCOC(=O)c1c(C)[nH]c2ccc3c(c12)CN1CCc2cc(OC)ccc2C1O3 (stereo unspecified) (system: Fibroblast)
-- reply 20

-- ask Provide Population Mitotic Cells (%), system Fibroblast, entry "Cc1cn(-c2cc(NC(=O)c3ccc(C)c(Nc4nccc(-c5cccnc5)n4)c3)cc(C(F)(F)F)c2)cn1"
-- reply 66

-- ask Give reported Population Mitotic Cells (%) for "CCc1cccc(CC)c1NC(=O)c1nn(C)c2c1CCc1cnc(Nc3ccc(N4CCN(C)CC4)cc3OC)nc1-2" (Fibroblast)
-- reply 80

-- ask Given "O=C(Cc1ccc(-c2ccc(OCCN3CCOCC3)cc2)cn1)NCc1ccccc1" , report its Population Mitotic Cells (%) on Fibroblast.
-- reply 50

-- ask # return Population Mitotic Cells (%) for "CCCS(=O)(=O)Nc1ccc(F)c(C(=O)c2c[nH]c3ncc(Cl)cc23)c1F" , test system: Fibroblast
-- reply 40

-- ask Report value only: Population Mitotic Cells (%), Fibroblast, "COC(=N)c1nc2ccc3ncnc(Nc4ccc(OC)cc4F)c3c2s1"
-- reply 0

-- ask State the measured Population Mitotic Cells (%) (Fibroblast) of "Cc1ccc2nc(NCCN)c3ncc(C)n3c2c1.O=C(O)C(F)(F)F.O=C(O)C(F)(F)F"
-- reply 33

Each of the following entries comes with a recorded value; kindly state Population Mitotic Cells (%) for each.
1. O=C(Nc1ccc(-n2nc(-c3cccnc3)cc2C(F)(F)F)cn1)c1ccc(-c2ccccc2)c(F)c1
2. COc1cccc2cc(-c3nc([C@H]4CC[C@H](C(=O)O)CC4)n4ncnc(N)c34)[nH]c12

-- reply
0
80

Working through the 6 molecules below one at a time, give Population Mitotic Cells (%) for each.
1. O=C(Nc1cccnn1)N1CCC(=Cc2cccc(Oc3ccc(C(F)(F)F)cn3)c2)CC1
2. C=CCn1c(=O)c2cnc(Nc3ccc(N4CCN(C)CC4)cc3)nc2n1-c1cccc(C(C)(C)O)n1
3. CN1CCN(C(=O)C(C)(C)c2ccc(C(=O)Nc3cn4cc(-c5cc(C(C)(C)C)cc(C(C)(C)C)c5)ccc4n3)cc2)CC1
4. CN(C)C(=O)C(CCN1CCC(O)(c2ccc(Cl)cc2)CC1)(c1ccccc1)c1ccccc1.Cl [LOPERAMIDE HYDROCHLORIDE]
5. S=C(NCCCc1c[nH]cn1)NCCCN(Cc1ccc(Cl)c(Cl)c1)c1ccc(Br)cn1
6. Cn1nc(C(F)(F)F)cc1-c1cnc(N2CCc3cc(S(=O)(=O)Nc4c(F)cc(Cl)cc4F)cc(N4CCCC4=O)c32)nc1

-- reply
1: 75; 2: 25; 3: 50; 4: 17; 5: 6; 6: 66
